# targetUnderTest: T1, hDcn4^P (PONY domain of human DCUN1D4) (Homo sapiens, UniProt Q92564 102-292)
# T1 sequence: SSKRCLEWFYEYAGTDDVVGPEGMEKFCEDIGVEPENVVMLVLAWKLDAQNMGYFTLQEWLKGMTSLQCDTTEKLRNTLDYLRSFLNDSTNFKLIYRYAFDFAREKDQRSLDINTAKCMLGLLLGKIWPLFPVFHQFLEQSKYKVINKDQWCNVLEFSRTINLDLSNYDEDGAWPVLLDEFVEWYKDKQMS
# testName: ITC, two values in the cell, second value
assayReadout: Kd (µM)

INSERT INTO measurements (binder, readoutunit, measurement) VALUES
  ('Ac-MLKLRQLQKKKQKENENSSSIQPN-NH2 (Synthetic peptide of the N-terminus of yeast Ubc12; also called Acetyl-yUbc12^1-24) [yUbc12^Ac1-24]', 'µM', 13);

Source: patent US20140179593A1
